For each record, write down the corresponding Mean % WT Binding.
Experimental target: human CD33 P350A (human, UniProt P20138 18-364)
Sequence (P20138 18-364 P350A limits assumed): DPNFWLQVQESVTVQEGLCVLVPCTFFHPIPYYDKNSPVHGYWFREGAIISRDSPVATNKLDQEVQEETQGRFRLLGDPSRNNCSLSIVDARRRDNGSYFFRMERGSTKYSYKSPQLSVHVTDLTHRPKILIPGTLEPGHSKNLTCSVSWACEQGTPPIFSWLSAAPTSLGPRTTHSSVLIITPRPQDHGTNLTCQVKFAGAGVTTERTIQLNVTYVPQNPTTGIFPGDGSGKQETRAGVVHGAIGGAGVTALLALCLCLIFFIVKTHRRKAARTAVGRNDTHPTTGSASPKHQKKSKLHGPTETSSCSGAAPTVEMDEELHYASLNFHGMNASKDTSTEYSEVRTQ
Protocol summary: flow cytometry, alanine scan

Could I get Mean % WT Binding for every one of these entries?
1. Refmab #3 (antibody, V domains shown, The alanine scan used IgG or Fab) VH: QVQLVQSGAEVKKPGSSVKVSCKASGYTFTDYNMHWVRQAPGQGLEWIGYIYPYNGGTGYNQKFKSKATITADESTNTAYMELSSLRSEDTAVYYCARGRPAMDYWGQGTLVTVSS VL: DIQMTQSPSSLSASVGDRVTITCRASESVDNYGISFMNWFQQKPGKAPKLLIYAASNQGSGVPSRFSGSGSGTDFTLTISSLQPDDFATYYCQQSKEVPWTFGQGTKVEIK
2. Refmab #1 (antibody, V domains shown, The alanine scan used IgG or Fab; also called hP67.6) VH: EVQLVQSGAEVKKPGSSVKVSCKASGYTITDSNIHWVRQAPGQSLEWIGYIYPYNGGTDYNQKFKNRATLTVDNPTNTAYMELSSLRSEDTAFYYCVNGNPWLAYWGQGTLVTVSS VL: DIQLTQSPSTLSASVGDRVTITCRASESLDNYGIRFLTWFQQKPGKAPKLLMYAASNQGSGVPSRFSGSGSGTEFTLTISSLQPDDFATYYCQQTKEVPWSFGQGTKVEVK

90.7 % of WT
99 % of WT

Could I get Mean % WT Binding for every one of these entries?
1. Refmab #4 (antibody, V domains shown, The alanine scan used IgG or Fab) VH: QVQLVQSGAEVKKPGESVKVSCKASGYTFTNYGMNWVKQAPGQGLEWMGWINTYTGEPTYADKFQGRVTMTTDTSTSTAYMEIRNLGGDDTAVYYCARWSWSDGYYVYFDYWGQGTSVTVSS VL: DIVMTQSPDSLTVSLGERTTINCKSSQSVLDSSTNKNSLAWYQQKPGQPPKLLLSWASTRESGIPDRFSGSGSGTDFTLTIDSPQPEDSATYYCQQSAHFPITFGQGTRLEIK
2. Refmab #2 (antibody, V domains shown, The alanine scan used IgG or Fab) VH: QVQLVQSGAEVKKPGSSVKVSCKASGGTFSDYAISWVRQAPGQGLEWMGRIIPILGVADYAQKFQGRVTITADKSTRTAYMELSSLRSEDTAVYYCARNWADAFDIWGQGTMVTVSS VL: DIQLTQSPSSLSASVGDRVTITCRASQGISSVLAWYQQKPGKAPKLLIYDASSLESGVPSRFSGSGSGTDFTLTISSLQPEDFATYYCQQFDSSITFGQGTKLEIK

1. 93.1 % of WT
2. 117 % of WT
